Give viability, T/C for every item shown.
# System: K86415-001-R-J1-PDC complex spheroids, viability
# protocol summary: Anticancer human tumor K86415-001-R-J1-PDC patient-derived lung adenocarcinoma cell line growth inhibition [RAS]
# condition parameters: second compound 0.3 µM; first compound 3.16 µM; stronger effect = lower value

Reference set (5 entries):
{"molecule": "C[C@@H](NC(=O)c1ncnc(N)c1Cl)c1ncc(C(=O)Nc2cc(C(F)(F)F)c(Cl)cn2)s1 + CCn1c(-c2cccnc2C(C)OC)c2c3cc(ccc31)N1CCOC(CC(NC(=O)C(C(C)C)N(C)C(=O)C3(F)CCN(C(=O)C#CC(C)(C)N(C)C)CC3)C(=O)N3CCCC(N3)C(=O)OCC(C)(C)C2)C1", "measured target": "K86415-001-R-J1-PDC complex spheroids, viability", "measured endpoint": "viability, T/C", "value reported": "13.8%"}
{"molecule": "NC1c2ccccc2OC12CCN(c1cnc3c(N4CCCc5ncccc54)n[nH]c3n1)CC2 (configuration not stated) + CCn1c(-c2cccnc2C(C)OC)c2c3cc(ccc31)N1CCOC(CC(NC(=O)C(C(C)C)N(C)C(=O)C3(F)CCN(C(=O)C#CC(C)(C)N(C)C)CC3)C(=O)N3CCCC(N3)C(=O)OCC(C)(C)C2)C1", "measured target": "K86415-001-R-J1-PDC complex spheroids, viability", "measured endpoint": "viability, T/C", "value reported": "2.46%"}
{"molecule": "Cc1nc(N2CCC3(CC2)COC(C)C3N)c(CO)nc1Sc1ccnc(N)c1Cl (configuration not stated) + CCn1c(-c2cccnc2C(C)OC)c2c3cc(ccc31)N1CCOC(CC(NC(=O)C(C(C)C)N(C)C(=O)C3(F)CCN(C(=O)C#CC(C)(C)N(C)C)CC3)C(=O)N3CCCC(N3)C(=O)OCC(C)(C)C2)C1", "measured target": "K86415-001-R-J1-PDC complex spheroids, viability", "measured endpoint": "viability, T/C", "value reported": "3.5%"}
{"molecule": "CC1(O)CCCC1n1c(=O)c(C(F)F)cc2cnc(NC3CCN(S(C)(=O)=O)CC3)nc21 (configuration not stated) + CCn1c(-c2cc(N3CCN(C)CC3)cnc2C(C)OC)c2c3cc(ccc31)-c1csc(n1)CC(NC(=O)C1CC1C)C(=O)N1CCCC(N1)C(=O)OCC(C)(C)C2", "measured target": "K86415-001-R-J1-PDC complex spheroids, viability", "measured endpoint": "viability, T/C", "value reported": "7.45%"}
{"molecule": "CC(Nc1ccc2c(c1)OCCn1cc(N3C(=O)OCC3C(F)F)nc1-2)C(N)=O (configuration not stated) + CCn1c(-c2cccnc2C(C)OC)c2c3cc(ccc31)N1CCOC(CC(NC(=O)C(C(C)C)N(C)C(=O)C3(F)CCN(C(=O)C#CC(C)(C)N(C)C)CC3)C(=O)N3CCCC(N3)C(=O)OCC(C)(C)C2)C1", "measured target": "K86415-001-R-J1-PDC complex spheroids, viability", "measured endpoint": "viability, T/C", "value reported": "1.58%"}

For each listed entry, give its viability, T/C.
1. CC(C)NCC(C(=O)N1CCN(c2ncnc3c2C(C)CC3O)CC1)c1ccc(Cl)cc1 (configuration not stated) + CCn1c(-c2cccnc2C(C)OC)c2c3cc(ccc31)N1CCOC(CC(NC(=O)C(C(C)C)N(C)C(=O)C3(F)CCN(C(=O)C#CC(C)(C)N(C)C)CC3)C(=O)N3CCCC(N3)C(=O)OCC(C)(C)C2)C1
2. CC1(O)CCCC1n1c(=O)c(C(F)F)cc2cnc(NC3CCN(S(C)(=O)=O)CC3)nc21 (configuration not stated) + CCn1c(-c2cccnc2C(C)OC)c2c3cc(ccc31)N1CCOC(CC(NC(=O)C(C(C)C)N(C)C(=O)C3(F)CCN(C(=O)C#CC(C)(C)N(C)C)CC3)C(=O)N3CCCC(N3)C(=O)OCC(C)(C)C2)C1

["4.71%", "17.6%"]

----------
# Tested on: K86415-001-R-J1-PDC complex spheroids, viability
# protocol summary: Anticancer human tumor K86415-001-R-J1-PDC cell line growth inhibition [RAS];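 also: spheroids exposed to agents for seven days before readout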
# condition parameters: second compound 1 µM; first compound 10 µM; stronger effect = lower value
Give viability, T/C for every item shown.
Numbers only, in %.

{"compound": "NC1c2ccccc2OC12CCN(c1cnc3c(N4CCCc5ncccc54)n[nH]c3n1)CC2 (stereo unspecified) + C=CC(=O)N1CCN(c2nc(OCC3CCCN3C)nc3c(F)c(-c4nc(N)cc(C)c4C(F)(F)F)c(Cl)cc23)C(C)C1", "viability, T/C [%]": 5.91}

For each listed entry, give its viability, T/C.
1. CC(Nc1ccc2c(c1)OCCn1cc(N3C(=O)OCC3C(F)F)nc1-2)C(N)=O (stereo unspecified) + C=CC(=O)N1CCN(c2nc(OCC3CCCN3C)nc3c(F)c(-c4nc(N)cc(C)c4C(F)(F)F)c(Cl)cc23)C(C)C1
2. CC(C)NCC(C(=O)N1CCN(c2ncnc3c2C(C)CC3O)CC1)c1ccc(Cl)cc1 (stereo unspecified) + C#Cc1c(F)ccc2cc(O)cc(-c3ncc4c(N5CC6CCC(C5)N6)nc(OCC56CCCN5CC(F)C6)nc4c3F)c12
3. C[C@@H](NC(=O)c1ncnc(N)c1Cl)c1ncc(C(=O)Nc2cc(C(F)(F)F)c(Cl)cn2)s1 + C=CC(=O)N1CCN(c2nc(OCC3CCCN3C)nc3c(F)c(-c4nc(N)cc(C)c4C(F)(F)F)c(Cl)cc23)C(C)C1
4. CC1(O)CCCC1n1c(=O)c(C(F)F)cc2cnc(NC3CCN(S(C)(=O)=O)CC3)nc21 (stereo unspecified) + C#Cc1c(F)ccc2cc(O)cc(-c3ncc4c(N5CC6CCC(C5)N6)nc(OCC56CCCN5CC(F)C6)nc4c3F)c12
5. CC(=O)OC12COC1CC(O)C1(C)C(=O)C(O)C3=C(C)C(OC(=O)C(O)C(NC(=O)OC(C)(C)C)c4ccccc4)CC(O)(C(OC(=O)c4ccccc4)C21)C3(C)C (stereo unspecified) + C#Cc1c(F)ccc2cc(O)cc(-c3ncc4c(N5CC6CCC(C5)N6)nc(OCC56CCCN5CC(F)C6)nc4c3F)c12
6. NC1c2ccccc2OC12CCN(c1cnc3c(N4CCCc5ncccc54)n[nH]c3n1)CC2 (stereo unspecified) + C#Cc1c(F)ccc2cc(O)cc(-c3ncc4c(N5CC6CCC(C5)N6)nc(OCC56CCCN5CC(F)C6)nc4c3F)c12
7. CC(=O)OC12COC1CC(O)C1(C)C(=O)C(O)C3=C(C)C(OC(=O)C(O)C(NC(=O)OC(C)(C)C)c4ccccc4)CC(O)(C(OC(=O)c4ccccc4)C21)C3(C)C (stereo unspecified) + C=CC(=O)N1CCN(c2nc(OCC3CCCN3C)nc3c(F)c(-c4nc(N)cc(C)c4C(F)(F)F)c(Cl)cc23)C(C)C1
8. Cc1nc(N2CCC3(CC2)COC(C)C3N)c(CO)nc1Sc1ccnc(N)c1Cl (stereo unspecified) + C=CC(=O)N1CCN(c2nc(OCC3CCCN3C)nc3c(F)c(-c4nc(N)cc(C)c4C(F)(F)F)c(Cl)cc23)C(C)C1

[1.04, 39.3, 11.1, 6.85, 26.7, 5.6, 10.5, 4.08]

For each listed entry, give its viability, T/C.
1. C[C@@H](NC(=O)c1ncnc(N)c1Cl)c1ncc(C(=O)Nc2cc(C(F)(F)F)c(Cl)cn2)s1 + C#Cc1c(F)ccc2cc(O)cc(-c3ncc4c(N5CC6CCC(C5)N6)nc(OCC56CCCN5CC(F)C6)nc4c3F)c12
2. CC(Nc1ccc2c(c1)OCCn1cc(N3C(=O)OCC3C(F)F)nc1-2)C(N)=O (stereo unspecified) + C#Cc1c(F)ccc2cc(O)cc(-c3ncc4c(N5CC6CCC(C5)N6)nc(OCC56CCCN5CC(F)C6)nc4c3F)c12

1: 46.3; 2: 23.2

----------
# Tested on: K86415-001-R-J1-PDC complex spheroids, viability
# protocol summary: Anticancer human tumor K86415-001-R-J1-PDC cell line growth inhibition [RAS];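 also: spheroids exposed to agents for seven days before readout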
# condition parameters: second compound 1 µM; first compound 0.00316 µM; stronger effect = lower value
Give viability, T/C for every item shown.
Give bare numbers, in %.

Reference set (3 entries):
{"compound": "O=C(c1ccc(F)c(F)c1Nc1ccc(I)cc1F)N1CC(O)([C@@H]2CCCCN2)C1 + C=CC(=O)N1CCN(c2nc(OCC3CCCN3C)nc3c(F)c(-c4nc(N)cc(C)c4C(F)(F)F)c(Cl)cc23)C(C)C1", "unit label": "%", "value reported": 10}
{"compound": "C=CC(=O)N1CCN(c2nc(OCC3CCCN3C)nc3c(F)c(-c4nc(N)cc(C)c4C(F)(F)F)c(Cl)cc23)C(C)C1 (stereo not given) + C#Cc1c(F)ccc2cc(O)cc(-c3ncc4c(N5CC6CCC(C5)N6)nc(OCC56CCCN5CC(F)C6)nc4c3F)c12", "unit label": "%", "value reported": 18.6}
{"compound": "CC(C)n1nc(-c2ccc3oc(N)nc3c2)c2c(N)ncnc21 + C#Cc1c(F)ccc2cc(O)cc(-c3ncc4c(N5CC6CCC(C5)N6)nc(OCC56CCCN5CC(F)C6)nc4c3F)c12", "unit label": "%", "value reported": 68.1}

For each listed entry, give its viability, T/C.
1. CCN1CCN(Cc2ccc(Nc3ncc(F)c(-c4cc(F)c5nc(C)n(C(C)C)c5c4)n3)nc2)CC1 + C=CC(=O)N1CCN(c2nc(OCC3CCCN3C)nc3c(F)c(-c4nc(N)cc(C)c4C(F)(F)F)c(Cl)cc23)C(C)C1
2. CCN1CCN(Cc2ccc(Nc3ncc(F)c(-c4cc(F)c5nc(C)n(C(C)C)c5c4)n3)nc2)CC1 + C#Cc1c(F)ccc2cc(O)cc(-c3ncc4c(N5CC6CCC(C5)N6)nc(OCC56CCCN5CC(F)C6)nc4c3F)c12

[9.7, 62]
